Assay read-out MIC; system under study: SPNE 9912.
outcomeMeasure: MIC (µg/mL)

>  <smilesCode>
O=C1C=CN(c2c(F)cc(N3C[C@H](CNC(=S)C(F)F)OC3=O)cc2F)CC1

>  <measureUnit>
µg/mL

>  <MIC>
0.25

$$$$
>  <smilesCode>
CCC(=O)NC[C@H]1CN(c2ccc(N3C=CC(=O)CC3)c(F)c2)C(=O)O1

>  <measureUnit>
µg/mL

>  <MIC>
0.5

$$$$
>  <smilesCode>
O=C1C=CN(c2ccc(N3C[C@H](CNC(=S)C(F)F)OC3=O)cc2F)CC1

>  <measureUnit>
µg/mL

>  <MIC>
0.125

$$$$

(I) O=C1C=CN(c2c(F)cc(N3C[C@H](CNC(=O)C(Cl)Cl)OC3=O)cc2F)CC1
(II) CCC(=O)NC[C@H]1CN(c2ccc(N3C=CC(=O)CC3)cc2)C(=O)O1
Query :: Problem: Given the entries I and II , determine which has the lower reported MIC. # answer = label of selected item
Result :: I
(I: 0.25 µg/mL, II: 0.5 µg/mL)
